System: SW-620
Assay: NCI tumour cell line growth inhibition, 48 h
Active and inactive are the calls of the source. Cut-off read from the data, not from the text of the source: active = GI50 up to about 1.1 µM and inactive = higher.
Hello, when you answer, please use one of the following outcomes: y (active), n (inactive)

MOLECULE	TARGET OR SYSTEM	ANSWER LABEL
COc1ccccc1/C=C(\C#N)c1ccccc1	SW-620	n
C=C(C(=O)OC)[C@H]1CC/C(C)=C/CC/C(C)=C/CC[C@@]2(C)O[C@@H]2C1	SW-620	n
COC1(CC[C@@H](C)COC2OC(CO)C(O)C(O)C2O)O[C@H]2C[C@H]3[C@@H]4CC=C5C[C@@H](OC6OC(CO)C(O)C(OC7OC(CO)C(O)C(O)C7O)C6OC6OC(C)C(O)C(O)C6O)CC[C@]5(C)[C@H]4CC[C@]3(C)[C@H]2[C@@H]1C (some centres not stated)	SW-620	n
CCN1CCC(O)(/C=C/c2ccc(OC)cc2)C(C(=O)/C=C/c2ccc(OC)cc2)C1 (configuration not stated)	SW-620	n
CC1=NN(c2ccc(C)cc2)C2(C1)SCC(=O)N2c1nc2ccccc2s1 (configuration not stated)	SW-620	n

Here's the next entry for you.
input: Fill in: this test's call for "COc1cc([C@@H]2c3cc4c(cc3[C@@H](Nc3ccc(/N=C\c5ccc(C(=O)O[C@@H](C(=O)O[C@H]6C[C@@]7(O)[C@@H](OC(=O)c8ccccc8)[C@@H]8[C@]9(OC(C)=O)CO[C@@H]9C[C@H](O)[C@@]8(C)C(=O)[C@H](OC(C)=O)C(=C6C)C7(C)C)[C@@H](NC(=O)c6ccccc6)c6ccccc6)cc5)cc3)[C@H]3COC(=O)[C@H]23)OCO4)cc(OC)c1O" is ___
output: n

The values you see were collected from ChEMBL document CHEMBL1201862.
